Reference source for all entries: paper PMC10397247

tgt: T1, 4H932-bN
T1 chain: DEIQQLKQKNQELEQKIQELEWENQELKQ
experiment-notes: two-hybrid library CCNG1;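 also: natural log of median RNA to DNA barcode read ratio; higher means stronger binding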
property: interaction score

- binder: "DKNQQLEQENQELKQKIQELEWEIQELEQ [4H3297-bN]"
  interaction score: -1.21

(1) DKIQQLKQKIQELEQKIQELKWENQELEQ [4H2859-bN]
(2) DEIQQLEQKNQELKQENQELKWKIQELEQ [4H477-bN]
(3) DEIQQLKQKNQELEQKIQELEWENQELKQ [4H932-bN]
With regard to interaction score, arrange the entries in ascending order, please. Show the ranking through the labels, in the order asked for.
1, 2, 3
